Target Or System: T1, 006 PSMA Fab
T1 construct: In the panning ELISA the PSMA Fab was biotinylated and captured on neutravidin coated plates; also called Anti-PSMA Fab; anti-PSMA Fab
Experimental Protocol: clonal phage ELISA on biotinylated PSMA Fab captured on neutravidin plates, anti-M13 HRP detection;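 further: crude clonal phage supernatants tested, before phage were added, wells were pretreated with PSMA antigen in blocking buffer or with blocking buffer only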
Measured Metric: Phage binding ELISA signal, Anti-PSMA Fab

[
  {
    "Binder": "YDFRCIPSWMCMGI [Phage-3095]",
    "Numeric Result": 2.1
  },
  {
    "Binder": "PMPVCVPMWMCYGF [Phage-3100]",
    "Numeric Result": 2.09
  },
  {
    "Binder": "QGRVCEPSWMCTGF [Phage-3096]",
    "Numeric Result": 2.09
  },
  {
    "Binder": "EHILCRPVWMCEGF [Phage-3098]",
    "Numeric Result": 2.09
  },
  {
    "Binder": "TELACKPLWMCNGF [Phage-3091]",
    "Numeric Result": 2.1
  },
  {
    "Binder": "MGPVCKPAWMCLEF [Phage-3099]",
    "Numeric Result": 2.09
  },
  {
    "Binder": "VVPRCEPMWMCQGF [Phage-3088]",
    "Numeric Result": 2.1
  },
  {
    "Binder": "GAMVCKPAWMCQGF [Phage-3094]",
    "Numeric Result": 2.1
  }
]

These measurements were taken from patent US20260242478A1.
